The measured values listed here are drawn from ChEMBL document CHEMBL6178021.

Reported values of half-life for individual entries
assay: Metabolic stability in human liver microsomes assessed as half life measured up to 60 mins by LC/MS analysis; type: ADME, Microsome

Using the record for COc1ccc(Cc2ccc(C3=N/C(=C\NC4CCCCCC4)C4=C3OCCO4)[nH]2)cc1 , state its measured half-life. > 60 min

Using the record for CCC1=C(CC)/C(=C/NC23C[C@H]4C[C@@H](C2)C[C@@H](C3)C4)N=C1c1ccc(CC)[nH]1 , state its measured half-life. > 60 min

Using the record for CCC1=C(CC)/C(=C/NC23C[C@H]4C[C@@H](C2)C[C@@H](C3)C4)N=C1c1cc2cc(Cl)ccc2[nH]1 , state its measured half-life. > 60 min

Using the record for CCC1=C(CC)/C(=C/NC23C[C@H]4C[C@@H](C2)C[C@@H](C3)C4)N=C1c1ccc(-c2ccccc2)[nH]1 , state its measured half-life. 46.9 min

Using the record for C(/NC12C[C@H]3C[C@@H](C1)C[C@@H](C2)C3)=C1/N=C(c2ccc[nH]2)C2=C1OCCO2 , state its measured half-life. 11.7 min

Using the record for CCC1=C(CC)/C(=C/NC23CC4CC(CC(C4)C2)C3)N=C1c1ccc[nH]1 , state its measured half-life. > 60 min

Using the record for COc1ccc(Cc2ccc(C3=N/C(=C\NC4CCCCC4)C4=C3OCCO4)[nH]2)cc1 , state its measured half-life. > 60 min

Using the record for CCc1ccc(C2=N/C(=C\NC3CCCCC3)C3=C2OCCO3)[nH]1 , state its measured half-life. 51.3 min
